Origin of measurements: ChEMBL document CHEMBL5303573

Test: The drug is tested on Bifidobacterium longum subsp. Infantis strain: CCUG52486 for biotransformation. The drug concentrations were measured before and after a 12-h incubation by liquid-chromatography-coupled mass spectrometry (LC–MS)
Details: 2 µM

# molecule, Bacterial Biotransformation
measured = [
    ("C#C[C@]1(O)CC[C@H]2[C@@H]3CCC4=Cc5oncc5C[C@]4(C)[C@H]3CC[C@@]21C", "Compound metabolized"),
    ("Clc1cccc(Cl)c1N=C1NCCN1", "Compound NOT metabolized"),
    ("CN(C)C(=O)Oc1cc(OC(=O)N(C)C)cc(C(O)CNC(C)(C)C)c1 (stereo not drawn)", "Compound NOT metabolized"),
    ("C#C[C@]1(OC(C)=O)CC[C@H]2[C@@H]3CCC4=C[C@@H](OC(C)=O)CC[C@@H]4[C@H]3CC[C@@]21C [ETHYNODIOL DIACETATE]", "Compound NOT metabolized"),
    ("CC(=O)OCC(CCn1cnc2cnc(N)nc21)COC(C)=O", "Compound metabolized"),
    ("N[C@@H](Cc1ccc(N(CCCl)CCCl)cc1)C(=O)O", "Compound metabolized"),
    ("CCN(CC)CCNC(C(=O)OCCC(C)C)c1ccccc1.Cl.Cl (stereo not drawn)", "Compound NOT metabolized"),
    ("C=CCN1CC[C@]23c4c5ccc(O)c4O[C@H]2C(=O)CC[C@@]3(O)[C@H]1C5", "Compound NOT metabolized"),
]
